# protocol_text: Oral pharmacokinetics, blood level by disk agar diffusion bioassay
# Type: in vivo, Mice
# run_parameters: mouse, blood; mice, oral 25 mg/kg, t = 24.0 h; read-out: Blood Level of Compound
readout_type: concentration at 24 h (ng/mL)
Please give a number only; it is taken to be in ng/mL.

Exam item: Give its concentration at 24 h value. Item: C[C@H]1C[C@H](N)CN1c1nc2c(cc1F)c(=O)c(C(=O)O)cn2-c1ccc(F)cc1F
Marked response: 200

---

# protocol_text: Oral pharmacokinetics, blood level by disk agar diffusion bioassay
# Format: in vivo, Mice
# run_parameters: mouse, blood; mice, oral 25 mg/kg, t = 3.0 h; read-out: Blood Level of Compound
readout_type: concentration at 3 h (ng/mL)
Please give a number only; it is taken to be in ng/mL.

Exam item: Give its concentration at 3 h value. Item: C[C@H]1C[C@H](N)CN1c1nc2c(cc1F)c(=O)c(C(=O)O)cn2-c1ccc(F)cc1F [Example 2]
Marked response: 2800

---

# protocol_text: Oral pharmacokinetics, blood level by disk agar diffusion bioassay
# Type: in vivo, Mice
# run_parameters: mouse, blood; mice, oral 25 mg/kg, t = 2.0 h; read-out: Blood Level of Compound
readout_type: concentration at 2 h (ng/mL)
Please give a number only; it is taken to be in ng/mL.

Exam item: Give its concentration at 2 h value. Item: C[C@H]1C[C@H](N)CN1c1nc2c(cc1F)c(=O)c(C(=O)O)cn2-c1ccc(F)cc1F
Marked response: 3300

---

# protocol_text: Oral pharmacokinetics, blood level by disk agar diffusion bioassay
# Format: in vivo, Mice
# run_parameters: mouse, blood; mice, oral 25 mg/kg, t = 0.5 h; read-out: Blood Level of Compound
readout_type: concentration at 0.5 h
# do not omit the unit; it follows the number

Exam item: Give its concentration at 0.5 h value. Item: C[C@H]1C[C@H](N)CN1c1nc2c(cc1F)c(=O)c(C(=O)O)cn2-c1ccc(F)cc1F
Marked response: 5900 ng/mL

---

# protocol_text: Aqueous solubility in Ringer's buffer at pH 7.5 (HPLC)
# Assay type: physicochemical
# run_parameters: at pH 7.5 in Ringer's buffer
readout_type: solubility (µg/mL)
Please give a number only; it is taken to be in µg/mL.

Exam item: Give its solubility value. Item: CC1CC(N)CN1c1nc2c(cc1F)c(=O)c(C(=O)O)cn2-c1ccc(F)cc1F (stereo not shown) [Epimer of Example 2]
Marked response: 340

Exam item: Give its solubility value. Item: CC1CC(N)CN1c1cc2c(cc1F)c(=O)c(C(=O)O)cn2-c1ccc(F)cc1F (stereo not shown) [Epimer of Example 6]
Marked response: 182

Exam item: Give its solubility value. Item: NC1CCN(c2cc3c(cc2F)c(=O)c(C(=O)O)cn3-c2ccc(F)cc2F)C1 (stereo not shown) [Example B, reference compound]
Marked response: 8

Exam item: Give its solubility value. Item: NC1CCN(c2nc3c(cc2F)c(=O)c(C(=O)O)cn3-c2ccc(F)cc2F)C1 (stereo not shown) [Example A, reference compound]
Marked response: 8
